- assay_explanation: Metabolic stability in liver microsomes, cytosol, hepatocytes
- Type: in vitro ADME
- condition_details: CD-1, mouse, liver cytosol, Cytosol
- Procedure: Metabolic stability of ribitol was conducted in liver microsomes, cytosol, and primary hepatocytes, from CD-1 mouse, Sprague-Dawley rat, Gottingen minipig, and human at a concentration of ribitol of 10 μM.
readout_kind: half-life at 10 μM (h)
Your answer should be a plain number; it is taken to be in h.

What measured half-life at 10 μM goes with OC[C@@H](O)[C@@H](O)[C@@H](O)CO ? 9.63

* * *

- assay_explanation: 7-day repeat-dose oral toxicokinetics
- Format: in vivo, CD-1 mouse
- condition_details: male, CD-1, mouse, plasma, po, 0.5 g/kg, 0.5 g/kg/dose BID, Day 1, M; read-out: AUC0-24
readout_kind: AUC(0-t)

Entry under review: OC[C@@H](O)[C@@H](O)[C@@H](O)CO . Reported AUC(0-t)? 246 µg·h/mL

* * *

- assay_explanation: Single intravenous dose PK
- Format: in vivo, Bama minipig
- condition_details: Bama, minipig, plasma; IV 30 mg/kg, female
readout_kind: AUC(0-inf) (µg·h/mL)
Return type: number; implicit unit µg·h/mL.

Which value of AUC(0-inf) has been reported for OC[C@@H](O)[C@@H](O)[C@@H](O)CO in the records? 57

* * *

- assay_explanation: 28-day repeat-dose oral toxicokinetics
- Assay type: in vivo, CD-1 mouse
- condition_details: male, CD-1, mouse, plasma, po, 0.5 g/kg, 0.5 g/kg/dose BID, Day 1, Male; read-out: AUC0-24
readout_kind: AUC(0-t) (µg·h/mL)
Give just the number in µg·h/mL; leave the unit off.

# get_value(readout='AUC(0-t)', item= OC[C@@H](O)[C@@H](O)[C@@H](O)CO ) 351

* * *

- assay_explanation: Phase 1 SAD/MAD study in healthy subjects
- Type: in vivo, human
- condition_details: human, in vivo, oral, 9 g, steady state, 6 days, 9 g q 12 h (total 18 g/day); read-out: AUC(0-24)
readout_kind: AUC(0-t) (µg·h/mL)
Report the value in µg·h/mL with no unit label.

Can you look up the measured AUC(0-t) of OC[C@@H](O)[C@@H](O)[C@@H](O)CO [ribitol, (2R,3s,4S)-Pentane-1,2,3,4,5-pentol] for me? 673

* * *

- assay_explanation: Single oral dose PK
- Format: in vivo, CD-1 mouse
- condition_details: CD-1, mouse, plasma, oral; mice; stated for FOB timepoint selection; read-out: Tmax
readout_kind: Tmax

Which value of Tmax has been reported for OC[C@@H](O)[C@@H](O)[C@@H](O)CO [ribitol, (2R,3s,4S)-Pentane-1,2,3,4,5-pentol] in the records? ~1 h

* * *

- assay_explanation: 7-day repeat-dose oral toxicokinetics
- Type: in vivo, Bama minipig
- condition_details: female, Bama, minipig, plasma, po, 0.3 g/kg, 0.3 g/kg BID, Day 1, F
readout_kind: Cmax (µg/mL)
# output: bare number, implied unit µg/mL

Requested field: Cmax. Item: OC[C@@H](O)[C@@H](O)[C@@H](O)CO 112

* * *

- assay_explanation: Plasma protein binding, animals pooled (range)
- Format: in vitro ADME, CD-1 mouse
- condition_details: CD-1, Sprague-Dawley, Gottingen, mouse, rat, minipig, animal plasma, 0.49 and 1.31 mM
readout_kind: fraction unbound

Entry under review: OC[C@@H](O)[C@@H](O)[C@@H](O)CO . Reported fraction unbound? 0.554 to 0.614
